Data origin, for the record: patent US10442804B2

# measurement notes: MT-4 cytotoxicity assay
# Format: cell-based, human
# conditions: human, five days, Cell Titer Glo luminescence; read-out: MT-4 CC50
Let's look at some compounds and their measured CC50 at 5 days.

| compound | measure | measurement |
| --- | --- | --- |
| COCCCOc1cc2c(cc1OC)-c1cc(=O)c(C(=O)O)cn1N1[C@@H]2CCC1(C)C | CC50 at 5 days | > 10 µM |
| COCCCOc1cc2c(cc1Cl)-c1cc(=O)c(C(=O)O)cn1[C@H]1[C@H]2CCC1(C)C (single isomer, unassigned) [Example 35] | CC50 at 5 days | > 10 µM |
| COCCCOc1cc2c(cc1Cl)-c1cc(=O)c(C(=O)O)cn1N1[C@@H]2CCCC1(C)C (single isomer, unassigned) | CC50 at 5 days | 8.8 µM |

Return reported CC50 at 5 days; argument: `COc1cc2c(cc1C#CC(C)(C)S(C)(=O)=O)[C@H]1CCC(C)(C)N1n1cc(C(=O)O)c(=O)cc1-2`
> 10 µM

---

# measurement notes: MT-4 cytotoxicity assay
# Type: cell-based, human
# conditions: human, five days, Cell Titer Glo luminescence; read-out: MT-4 CC50
Let's look at some compounds and their measured CC50 at 5 days.

Example entries and their recorded answers appear below.
| compound | CC50 at 5 days |
| --- | --- |
| COCc1cc2c(cc1C#CC(C)(C)OC)[C@H]1CCC(C)(C)N1n1cc(C(=O)O)c(=O)cc1-2 | > 10 µM |
| COCc1cc2c(cc1C#CC(C)(C)O)[C@H]1CCC(C)(C)N1n1cc(C(=O)O)c(=O)cc1-2 | > 10 µM |
| CC1(C)CC[C@@H]2c3cc(OCc4ccccc4)c(OC(F)(F)F)cc3-c3cc(=O)c(C(=O)O)cn3N21 | 5 µM |

Return reported CC50 at 5 days; argument: COCCCOc1cc2c(cc1Cl)-c1cc(=O)c(C(=O)O)cn1N1[C@H]2CCC1(C)C (single isomer, unassigned)
> 10 µM

Item: COCCCOc1cc2c(cc1Cl)-c1cc(=O)c(C(=O)O)cn1N1CCC[C@H]21 (single isomer, unassigned)
3.9 µM

Item: COCCCOc1cc2c(cc1Cl)-c1cc(=O)c(C(=O)O)cn1N1[C@@H](C)CC[C@@H]21 (single isomer, unassigned)
> 10 µM

Item: `COc1cc2c(cc1OCCC(C)(C)OC)[C@H]1CCC(C)(C)N1n1cc(C(=O)O)c(=O)cc1-2`
> 10 µM

Item: `CCOc1cc2c(cc1OCCCOC)[C@H]1CCC(C)(C)N1n1cc(C(=O)O)c(=O)cc1-2`
> 10 µM

---

# System: HBV-infected NTCP-HepG2 cells, secreted HBsAg
# measurement notes: microbe, parasite or virus in culture
# Assay type: cell-based, hepatitis B virus (genotype D, AD38-derived)
# conditions: Hepatitis B virus, 120 h, secreted HBsAg in supernatant after 5 days; geometric mean of minimum four determinations; read-out: NTCP HBsAg EC50
# Protocol: NTCP-HepG2 Antiviral Assay for Secreted HBsAg HepG2 cells stably expressing sodium-taurocholate cotransporting polypeptide (NTCP-HepG2) were grown in Dulbecco's Modified Eagle Medium (DMEM) without sodium pyruvate (Thermo Fisher Scientific, Waltham, Mass.) supplemented with 10% fetal bovine serum, 2 mM L-glutamine, 1% penicillin/streptomycin, and 0.25 mg/mL G-418. […] After an incubation time of 5 days, cell culture supernatant was collected and measured for HBsAg. […]
measure: pEC50
Reminder that pEC50 means the negative base-10 logarithm of the concentration expressed in mol/L.

| compound | pEC50 |
| --- | --- |
| COCc1cc2c(cc1C#CC(C)(C)O)[C@H]1CCC(C)(C)N1n1cc(C(=O)O)c(=O)cc1-2 | 7.68 |
| COCCCOc1cc2c(cc1OC(F)F)-c1cc(=O)c(C(=O)O)cn1N1C2CCC1(C)C (stereo not shown) | 8.40 |
| COCCCOc1cc2c(cc1Cl)-c1cc(=O)c(C(=O)O)cn1[C@H]1[C@@H]2CCC1(C)C (single isomer, unassigned) | 8.74 |
| COc1cc2c(cc1C#Cc1cncn1C)[C@H]1CCC(C)(C)N1n1cc(C(=O)O)c(=O)cc1-2 | 8.32 |
| COCCCOc1cc2c(cc1Cl)-c1cc(=O)c(C(=O)O)cn1N1CCC(C)(C)[C@H]21 (single isomer, unassigned) | 7.80 |
| COCc1cc2c(cc1OCC1(COC)CC1)[C@H]1CCC(C)(C)N1n1cc(C(=O)O)c(=O)cc1-2 | 7.88 |
| COCCCOc1cc2c(cc1OC(C)(C)C)-c1cc(=O)c(C(=O)O)cn1N1[C@@H]2CCC1(C)C | 6.80 |
| COCCCOc1c(OC)cc2c(c1Br)[C@H]1CCC(C)(C)N1n1cc(C(=O)O)c(=O)cc1-2 | 6.44 |

Return reported pEC50; argument: `COC(C)(C)C#Cc1cc2c(cc1OC(F)F)-c1cc(=O)c(C(=O)O)cn1N1[C@@H]2CCC1(C)C`
9.09

Item: `COCCOCc1cc2c(cc1OC)-c1cc(=O)c(C(=O)O)cn1N1[C@@H]2CCC1(C)C`
7.15
